IC50 for assorted molecules
Measured Target: Decaprenylphosphoryl-beta-D-ribose oxidase (Mycobacterium tuberculosis (strain ATCC 25618 / H37Rv), UniProt P9WJF1)
Sequence (P9WJF1 whole entry): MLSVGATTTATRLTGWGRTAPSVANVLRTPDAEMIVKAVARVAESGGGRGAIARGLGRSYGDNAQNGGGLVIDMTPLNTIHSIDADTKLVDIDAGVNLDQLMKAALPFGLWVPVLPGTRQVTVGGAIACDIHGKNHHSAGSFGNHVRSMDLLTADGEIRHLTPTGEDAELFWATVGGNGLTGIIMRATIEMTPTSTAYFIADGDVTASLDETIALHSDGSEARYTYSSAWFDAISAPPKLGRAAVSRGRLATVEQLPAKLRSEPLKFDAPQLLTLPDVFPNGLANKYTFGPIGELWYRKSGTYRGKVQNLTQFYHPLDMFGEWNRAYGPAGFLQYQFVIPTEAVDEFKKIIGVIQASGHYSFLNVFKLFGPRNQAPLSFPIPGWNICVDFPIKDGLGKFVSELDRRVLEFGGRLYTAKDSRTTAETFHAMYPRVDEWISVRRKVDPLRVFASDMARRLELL
Method Description: Inhibition of Mycobacterium tuberculosis wild type DprE1 expressed in Escherichia coli BL21 DE3 assessed as formation of resorufin using FPR as substrate incubated for 10 mins by Amplex Red dye microplate assay
Give just the number in µM; leave the unit off.

O=C(NC(=O)c1ccsc1NC(=O)c1nc2ccccc2s1)OCC1CC1 = 0.01
N#Cc1ccc(C(=O)Nc2sccc2C(=O)NC(=O)OCC2CC2)cc1 = 18.9
N#Cc1ccc(C(=O)Nc2sccc2C(=O)NC(=O)OCC2CC2)nc1 = 11.5
CC(=O)c1ccc(C(=O)Nc2sccc2C(=O)NC(=O)OCC2CC2)cc1 = 1.21
CCOC(=O)NC(=O)c1ccsc1NC(=O)c1nc2ccccc2s1 = 0.053
O=C(NC(=O)c1ccsc1NC(=O)c1nc2ccccc2s1)OC1CCC1 = 18.6
O=C(NC(=O)c1ccsc1NC(=O)c1nc2ccccc2s1)OCC1CCCC1 = 22.4
CCOC(=O)NC(=O)c1ccsc1NC(=O)c1ccc(C#N)cn1 = 41.2

Query :: Could you tell me which IC50 is on file for CCOC(=O)NC(=O)c1ccsc1NC(=O)c1ccc(C(C)=O)cc1 ?
Result :: 36.4

Query :: One more molecule: O=C(NC(=O)c1ccsc1NC(=O)c1nc2ccccc2s1)OCC1CCC1
Result :: 0.098
